# System: Bacillus subtilis
# assayComment: Antibacterial activity against Bacillus subtilis CMCC 63501 measured after 24 hrs by ELISA
# Assay type: functional
# runParameters: CMCC 63501, 24 h
propertyMeasured: MIC (µM)

COc1c(N2CCNC(C)C2)c(F)cc2c(=O)c(C(=O)O)cn(C3CC3)c12 (stereo not given) | 5.33
C/C(=N/NC(N)=O)c1cn(S(=O)(=O)c2ccccc2)c2ccccc12 | 89.9
C/C(=N/NC(N)=O)c1cn(S(=O)(=O)c2ccc(C)cc2)c2ccc(Br)cc12 | 8.93
C/C(=N/NC(N)=O)c1cn(S(=O)(=O)c2ccccc2)c2ccc(Br)cc12 | 295

[I] C/C(=N/NC(N)=O)c1cn(S(=O)(=O)c2ccc(C)cc2)c2ccccc12
[II] Cc1ccc(S(=O)(=O)n2cc(/C=N\NC(N)=O)c3cc(Br)ccc32)cc1
(Q) Please indicate which entry, I or II , has the lower recorded MIC value. Lab log: write the label of the selected item as the result.
(A) II
(II: 9.22 µM, I: 346 µM)

----------
# System: Pseudomonas aeruginosa
# assayComment: Antibacterial activity against Pseudomonas aeruginosa CMCC 10104 measured after 24 hrs by ELISA
# Assay type: functional
# runParameters: CMCC 10104, 24 h
propertyMeasured: MIC

Worked examples follow.
CC/C(=N/NC(=N)N)c1cn(S(=O)(=O)c2ccccc2)c2ccccc12 | 43.4 µM
CC/C(=N/NC(N)=S)c1cn(S(=O)(=O)c2ccccc2)c2ccccc12 | > 332 µM
NC(=S)N/N=C\c1cn(S(=O)(=O)c2ccccc2)c2ccccc12 | > 358 µM

(Q) Tell me MIC reported for Cc1onc(-c2ccccc2)c1C(=O)N[C@@H]1C(=O)N2[C@@H]1SC(C)(C)[C@@H]2C(=O)O
(A) > 319 µM

(Q) Please give the documented MIC of C/C(=N/NC(=N)N)c1cn(S(=O)(=O)c2ccc(C)cc2)c2ccc(Br)cc12
(A) > 286 µM

(Q) Given the molecule C/C(=N/NC(N)=S)c1cn(S(=O)(=O)c2ccc(C)cc2)c2ccccc12 , write its reported MIC.
(A) > 332 µM

(Q) Provide measured MIC value, entry: Cc1ccc(S(=O)(=O)n2cc(/C=N\NC(N)=S)c3ccccc32)cc1
(A) > 343 µM

(Q) Look up and state reported MIC for C/C(=N/NC(N)=O)c1cn(S(=O)(=O)c2ccc(C)cc2)c2ccc(Br)cc12
(A) > 286 µM

(Q) Given the molecule CC/C(=N/NC(N)=O)c1cn(S(=O)(=O)c2ccccc2)c2ccc(Br)cc12 , write its reported MIC.
(A) > 286 µM

(Q) Look up and state reported MIC for NC(=O)N/N=C\c1cn(S(=O)(=O)c2ccccc2)c2ccccc12
(A) > 374 µM

(Q) Dear colleague, please send me the reported MIC for CC1(C)S[C@@H]2[C@H](NC(=O)Cc3ccccc3)C(=O)N2[C@H]1C(=O)O when you can.
(A) 95.8 µM

----------
# assayComment: Selectivity index, ratio of IC50 for HEK293T cells to MIC for methicillin-resistant Staphylococcus aureus ATCC 33591
# Assay type: toxicity
# runParameters: human, read-out: Selectivity Index
selectivity ratio listing for selected compounds.
Answer with the value's number alone.

Reference set (2 entries):
C/C(=N/NC(=N)N)c1cn(S(=O)(=O)c2ccc(C)cc2)c2ccc(Br)cc12 | 25.2
N=C(N)N/N=C\c1cn(S(=O)(=O)c2ccccc2)c2ccc(Br)cc12 | 30

(Q) Consider the compound CC/C(=N/NC(=N)N)c1cn(S(=O)(=O)c2ccc(C)cc2)c2ccc(Br)cc12 . State its measured selectivity ratio.
(A) 26.6

(Q) Quote selectivity ratio reported for Cc1ccc(S(=O)(=O)n2cc(/C=N\NC(=N)N)c3ccccc32)cc1 please.
(A) 15.4

(Q) Report selectivity ratio for C/C(=N/NC(=N)N)c1cn(S(=O)(=O)c2ccc(C)cc2)c2ccccc12
(A) 9.78

(Q) Using known records, supply selectivity ratio for Cc1ccc(S(=O)(=O)n2cc(/C=N\NC(=N)N)c3cc(Br)ccc32)cc1
(A) 63.9

----------
# Tested on: Enterococcus faecalis
# assayComment: Antibacterial activity against Enterococcus faecalis CMCC 29212 measured after 24 hrs by ELISA
# Assay type: functional
# runParameters: CMCC 29212, 24 h
propertyMeasured: MIC (µM)

[P] CC/C(=N/NC(=N)N)c1cn(S(=O)(=O)c2ccccc2)c2ccc(Br)cc12
[Q] C/C(=N/NC(N)=S)c1cn(S(=O)(=O)c2ccc(C)cc2)c2ccccc12
[R] CC/C(=N/NC(=N)N)c1cn(S(=O)(=O)c2ccccc2)c2ccccc12
(Q) Descending sort on MIC required. # answer = labels listed in requested order
(A) Q, R, P
(Q: 332 µM, R: 43.4 µM, P: 8.95 µM)

[A] C/C(=N/NC(=N)N)c1cn(S(=O)(=O)c2ccccc2)c2ccc(Br)cc12
[B] C/C(=N/NC(=N)N)c1cn(S(=O)(=O)c2ccccc2)c2ccccc12
(Q) Could you determine which record has the numerically smaller MIC? Candidates: A and B Refer to your chosen item by its label in the answer.
(A) A
(A: 9.24 µM, B: 45.1 µM)

----------
# assayComment: Selectivity index, ratio of IC50 for HEK293T cells to MIC for Streptococcus pneumoniae CMCC 31968
# Assay type: toxicity
# runParameters: human, read-out: Selectivity Index
propertyMeasured: selectivity ratio
// no unit string in output, number only

CC/C(=N/NC(=N)N)c1cn(S(=O)(=O)c2ccc(C)cc2)c2ccc(Br)cc12 | 53.4
Cc1ccc(S(=O)(=O)n2cc(/C=N\NC(=N)N)c3ccccc32)cc1 | 30.7

(Q) Read off the recorded selectivity ratio for C/C(=N/NC(=N)N)c1cn(S(=O)(=O)c2ccc(C)cc2)c2ccccc12
(A) 19.6

(Q) Provide measured selectivity ratio value, entry: C/C(=N/NC(=N)N)c1cn(S(=O)(=O)c2ccc(C)cc2)c2ccc(Br)cc12
(A) 25.2

----------
Listed here are compounds together with their documented selectivity ratio.
# assayComment: Selectivity index, ratio of IC50 for HEK293T cells to MIC for Pseudomonas aeruginosa CMCC 27853
# Assay type: toxicity
# runParameters: human, read-out: Selectivity Index

Examples with their reported selectivity ratio follow.
Cc1ccc(S(=O)(=O)n2cc(/C=N\NC(=N)N)c3cc(Br)ccc32)cc1 | < 0.25
C/C(=N/NC(=N)N)c1cn(S(=O)(=O)c2ccc(C)cc2)c2ccc(Br)cc12 | < 0.2
C/C(=N/NC(=N)N)c1cn(S(=O)(=O)c2ccc(C)cc2)c2ccccc12 | 0.15
N=C(N)N/N=C\c1cn(S(=O)(=O)c2ccccc2)c2ccc(Br)cc12 | < 0.23
CC/C(=N/NC(=N)N)c1cn(S(=O)(=O)c2ccc(C)cc2)c2ccc(Br)cc12 | < 0.21

// next item, selectivity ratio requested
(Q) Tell us which selectivity ratio value is on record for Cc1ccc(S(=O)(=O)n2cc(/C=N\NC(=N)N)c3ccccc32)cc1
(A) 1.92

----------
# assayComment: Selectivity index, ratio of IC50 for HEK293T cells to MIC for methicillin-resistant Staphylococcus aureus ATCC 43300
# Type: toxicity
# runParameters: human, read-out: Selectivity Index
# Lookup of reported selectivity ratio keyed by entry
// return just the number, without any unit appended

// below: answered compounds
N=C(N)N/N=C\c1cn(S(=O)(=O)c2ccccc2)c2ccc(Br)cc12 | 30
C/C(=N/NC(=N)N)c1cn(S(=O)(=O)c2ccc(C)cc2)c2ccc(Br)cc12 | 50.4
C/C(=N/NC(=N)N)c1cn(S(=O)(=O)c2ccc(C)cc2)c2ccccc12 | 9.78
CC/C(=N/NC(=N)N)c1cn(S(=O)(=O)c2ccc(C)cc2)c2ccc(Br)cc12 | 26.6

(Q) Find the measured selectivity ratio of Cc1ccc(S(=O)(=O)n2cc(/C=N\NC(=N)N)c3cc(Br)ccc32)cc1 and report it.
(A) 63.9

(Q) Fill in reported selectivity ratio for this entry: Cc1ccc(S(=O)(=O)n2cc(/C=N\NC(=N)N)c3ccccc32)cc1
(A) 30.7

----------
# Tested on: Pseudomonas aeruginosa
# assayComment: Antibacterial activity against Pseudomonas aeruginosa CMCC 10104 measured after 24 hrs by ELISA
# Type: functional
# runParameters: CMCC 10104, 24 h
propertyMeasured: MIC

Below, each entry is followed by its recorded MIC result.
CC/C(=N/NC(N)=O)c1cn(S(=O)(=O)c2ccccc2)c2ccccc12 | > 346 µM
CC/C(=N/NC(N)=S)c1cn(S(=O)(=O)c2ccc(C)cc2)c2ccccc12 | > 320 µM
C/C(=N/NC(=N)N)c1cn(S(=O)(=O)c2ccccc2)c2ccccc12 | 45.1 µM

(Q) Query MIC for NC(=O)N/N=C\c1cn(S(=O)(=O)c2ccccc2)c2ccc(Br)cc12
(A) > 305 µM

(Q) Provide one value: measured MIC of CC/C(=N/NC(N)=O)c1cn(S(=O)(=O)c2ccc(C)cc2)c2ccccc12
(A) > 333 µM
